tested on: Candida albicans (CA); test: MIC and MFC, broth microdilution, CA (Table 1); assay type: cell-based; details: Candida albicans, MFC, value in parentheses
property: MBC (µg/mL)
Numbers only, in µg/mL.

CCCCCCCCCC(=O)OCC(O)COC(=O)CC[C@@H](C)[C@H]1CC[C@H]2[C@@H]3[C@H](OC(=O)CCN)C[C@@H]4C[C@H](OC(=O)CCN)CC[C@]4(C)[C@H]3C[C@H](OC(=O)CCN)[C@]12C (some centres unmarked); 16

Note: attention shifts to another entry.
get_value(item= CCCC(=O)OCC(COC(=O)CC[C@@H](C)[C@H]1CC[C@H]2[C@@H]3[C@H](OC(=O)CCN)C[C@@H]4C[C@H](OC(=O)CCN)CC[C@]4(C)[C@H]3C[C@H](OC(=O)CCN)[C@]12C)OC(=O)CCC (some centres unmarked) , readout=MBC) returns 32
